# protocol.description: Liver fraction stability (thin-layer chromatography)
# Format: in vitro ADME, rat
# conditions: rat, rat liver microsomes; read-out: Metabolic stability, half-life (t1/2)
value.kind: half-life at 100 µM

Problem: Dear colleague, I am looking for the recorded half-life at 100 µM of the following compound: Cc1ccc2c(c1)nc(-c1ccc(N(C)C)cc1)n2CCc1ccccc1
Solution: > 4 h

* * *

# protocol.description: Cytotoxicity in U87-CD4-CCR5 cells (MTT)
# Format: cell-based
# conditions: human
# Procedure: TZM-bl cells, U87-CD4-CCR5, murine macrophages (J774.1), and THP-1 monocytes (ATCC®TIB-202™) were grown following ATCC recommendations. […] Cell viability was then assessed by measuring the mitochondria-dependent reduction of MTT (3-(4,5-dimethylthiazol-2-yl)-2,5-diphenyltetrazolium bromide) to formazan. […] After removing the medium, formazan crystals were dissolved in 180 µL of DMSO and 20µL of MTT buffer (0.1 M glycine, 0.1 M NaCl, 0.5 mM EDTA, pH 10.5), and the absorbance at 560 nm was measured. […]
value.kind: EC50 at 11 days

Problem: So what does the record say about EC50 at 11 days for Cc1ccc2c(c1)nc(-c1ccc(N(C)C)cc1)n2CCc1ccccc1 ?
Solution: > 50 µM
